Origin of measurements: the supplement of paper PMC6555819

test system: PPARg DBDmut IVT, anti-PPARg (DBD mutation: PPARg1 K132A/R137A, NR concentration 270 nM); assay: PBM binding z-score (relative to random genomic background probes); higher = stronger binding; sequences stand for … in GC…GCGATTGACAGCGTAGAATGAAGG
Everything with PBM binding z-score lower than 0.5 is Not satisfied; everything else, including exactly 0.5, is Satisfied.

hey, is PBM binding z-score for this one >= 0.5? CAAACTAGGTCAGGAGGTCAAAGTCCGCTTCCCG
Satisfied

Same question, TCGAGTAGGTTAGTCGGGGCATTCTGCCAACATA this time
Not satisfied

Same question, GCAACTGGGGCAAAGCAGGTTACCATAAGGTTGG this time
Not satisfied

Same question, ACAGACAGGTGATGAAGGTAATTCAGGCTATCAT this time
Not satisfied

Same question, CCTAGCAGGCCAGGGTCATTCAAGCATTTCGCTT this time
Not satisfied

Same question, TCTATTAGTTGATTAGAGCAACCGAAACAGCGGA this time
Satisfied

Same question, CTACCAAGGTGAACAAGGTTGTTGATTACTATTC this time
Not satisfied

Same question, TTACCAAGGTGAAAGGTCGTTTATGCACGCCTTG this time
Not satisfied

Same question, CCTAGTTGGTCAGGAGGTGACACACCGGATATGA this time
Not satisfied

Same question, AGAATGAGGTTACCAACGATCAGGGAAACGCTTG this time
Satisfied

Same question, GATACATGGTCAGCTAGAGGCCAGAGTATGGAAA this time
Not satisfied

Same question, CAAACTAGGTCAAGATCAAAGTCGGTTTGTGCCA this time
Satisfied

Same question, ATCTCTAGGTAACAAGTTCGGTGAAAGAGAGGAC this time
Satisfied

Same question, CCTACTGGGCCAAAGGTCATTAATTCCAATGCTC this time
Not satisfied

Same question, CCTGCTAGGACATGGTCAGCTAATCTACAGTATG this time
Not satisfied

Same question, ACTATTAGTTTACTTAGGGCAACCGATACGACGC this time
Satisfied

Same question, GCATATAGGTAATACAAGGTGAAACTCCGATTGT this time
Satisfied

Same question, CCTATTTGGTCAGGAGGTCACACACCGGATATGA this time
Satisfied

Same question, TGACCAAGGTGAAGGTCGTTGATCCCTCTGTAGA this time
Not satisfied

Same question, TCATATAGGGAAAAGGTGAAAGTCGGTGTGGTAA this time
Satisfied

Same question, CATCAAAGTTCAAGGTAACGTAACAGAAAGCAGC this time
Satisfied

Same question, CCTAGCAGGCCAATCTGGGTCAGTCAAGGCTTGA this time
Not satisfied

Same question, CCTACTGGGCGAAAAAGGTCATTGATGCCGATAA this time
Not satisfied

Same question, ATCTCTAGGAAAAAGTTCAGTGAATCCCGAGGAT this time
Not satisfied

Same question, TTACCAAGGTGAGCTGAGGTCGTTGGTCCAACTC this time
Not satisfied

Same question, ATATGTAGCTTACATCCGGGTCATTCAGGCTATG this time
Satisfied

Same question, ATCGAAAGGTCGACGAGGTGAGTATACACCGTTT this time
Satisfied

Same question, GCTCGGAGAACAAGGTCAGAGCTTTGTCCGTAGA this time
Not satisfied

Same question, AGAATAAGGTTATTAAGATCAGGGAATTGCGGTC this time
Satisfied

Same question, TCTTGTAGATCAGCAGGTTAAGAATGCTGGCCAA this time
Not satisfied

Same question, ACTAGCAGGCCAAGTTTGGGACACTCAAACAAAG this time
Not satisfied

Same question, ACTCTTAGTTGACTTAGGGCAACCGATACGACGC this time
Satisfied

Same question, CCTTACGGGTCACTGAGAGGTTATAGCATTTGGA this time
Not satisfied

Same question, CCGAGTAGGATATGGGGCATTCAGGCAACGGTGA this time
Not satisfied

Same question, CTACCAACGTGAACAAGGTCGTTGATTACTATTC this time
Satisfied

Same question, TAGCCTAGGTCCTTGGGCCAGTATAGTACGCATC this time
Not satisfied

Same question, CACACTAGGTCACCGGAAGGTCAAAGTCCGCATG this time
Satisfied

Same question, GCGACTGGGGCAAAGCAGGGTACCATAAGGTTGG this time
Not satisfied

Same question, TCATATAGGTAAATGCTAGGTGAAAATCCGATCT this time
Satisfied

Same question, TAGCCTAGGTCATGGGCCACTATACCACGCGAAC this time
Not satisfied

Same question, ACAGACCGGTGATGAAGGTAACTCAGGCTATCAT this time
Not satisfied

Same question, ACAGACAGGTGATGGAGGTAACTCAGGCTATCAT this time
Not satisfied

Same question, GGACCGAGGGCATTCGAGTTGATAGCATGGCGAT this time
Not satisfied

Same question, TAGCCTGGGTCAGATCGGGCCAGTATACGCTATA this time
Not satisfied

Same question, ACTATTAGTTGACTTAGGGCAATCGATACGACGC this time
Satisfied

Same question, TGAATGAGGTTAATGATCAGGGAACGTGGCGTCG this time
Not satisfied

Same question, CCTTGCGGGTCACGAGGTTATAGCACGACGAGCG this time
Satisfied
